test.target: T1, human monomeric EGFR (EGFR.mmh) (human, UniProt P00533 25-647)
T1 construct: Soluble monomeric EGFR construct
protocol.text: SPR 37C, mAb captured by anti-human Fc, EGFR.mmh analyte
Entries annotated with measured t1/2
Field format: number, assumed min, no unit text.

Sample answers from the record:
binder="H1H089N (antibody, human IgG1, V domains shown, Tested in human IgG1 Fc format (H1H); also called H1M089N) VH: EVQLVESGGGLVQPGRSLRLSCAASGFTFDDYAMHWVRQAPGKGLEWVSGINWNSDKIAYADSVKGRFTISRDNAENSLFLQMNSLRPEDTALYYCVKRGDFWTDYYDYWGQGTLVTVSS VL: DIVMTQSPLSLPVTPGEPASISCRSSQSLLHSNGHNYLDWYLQKPGQSPHLLIYLVSNRASGVPDRFSGSGSGTDFTLKISRVEAEDVGVYYCIQALQTPWTFGQGTKVEIK" assay_result=2
binder="H1H086N (antibody, human IgG1, V domains shown, Tested in human IgG1 Fc format (H1H); also called H1M086N) VH: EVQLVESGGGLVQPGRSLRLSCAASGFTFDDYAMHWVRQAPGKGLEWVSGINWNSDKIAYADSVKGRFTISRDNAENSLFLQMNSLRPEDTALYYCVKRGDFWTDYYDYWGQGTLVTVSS VL: DIVMTQSPLSLPVTPGEPASISCRSSQSLLHSNGYNYLDWYLQKPGQSPHLLIYLVSTRASGVPDRFSGSGSGTDFTLKISRVEAEDVGVYYCMQALQTPWTFGQGTKVEIK" assay_result=16

// query Which t1/2 is listed for H1H144P (antibody, human IgG1, V domains shown, Human IgG1 Fc (H1H)) VH: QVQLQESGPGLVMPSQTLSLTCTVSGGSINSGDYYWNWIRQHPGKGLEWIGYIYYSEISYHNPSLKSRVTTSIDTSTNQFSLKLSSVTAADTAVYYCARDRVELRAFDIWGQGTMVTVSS VL: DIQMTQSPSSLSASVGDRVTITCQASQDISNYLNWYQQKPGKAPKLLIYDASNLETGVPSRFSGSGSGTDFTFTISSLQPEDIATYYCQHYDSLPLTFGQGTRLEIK ?
// result 12

// query // query: H1H103N (antibody, human IgG1, V domains shown, Tested in human IgG1 Fc format (H1H); also called H1M103N) VH: EVQLVESGGGLVQPGGSLRLSCAASGFTFSSYDMHWVRQTTGKGLEWVSGIGTAGDTYYPGSVKGRFTISREDAKNSLYLQMNSLRAGDTAVYYCARVGYDWNFVAFDYWGQGTLVTVSS VL: DIVMTQSPLSLPVTPGEPASISCRSSQSLLHSNGYNYLDWYLQKPGQSPQLLIHLVSIRASGVPDRFSGSGSGTDFTLKISRVEAEDVGIYYCMQALQTPWTFGQGTKVEIK
// result 8

// query // query: H1H169P (antibody, human IgG1, V domains shown, Human IgG1 Fc (H1H)) VH: EVQLVESGGGLVQPGGSLRLSCAASRFTFSTYWMSWVRQAPGKGLEWVAKIKQDGSEKYYLDSVKDRFTISRDNAKNSLYLQMNSLRAEDTAVYYCASSITWYDYYYGMDVWGHGTTVTVSS VL: EIVLTQSPDFQSVTPKEKVTITCRASQSIGSNLHWYQQKPDQSPNLLIKFASQSFSGVPSRFSGSGSGTDFTLTINSLEAEDAATYYCHQTNFLPHTFGGGTKVEIK
// result 13
